Cited source for all entries: patent US20260250289A1

- ASSAY_SYSTEM: WRN helicase (aa N517-P1238) (Homo sapiens, UniProt Q14191)
- Construct: The core helicase motif of the WRN protein (aa N517-P1238) was produced for this assay; His (N); ZZ (N); 3C protease cleavage site (N); made in house; host or cells: Sf21 insect cells (baculovirus; virus and BIICs made in SF9)
- Sequence (Q14191 517-1238): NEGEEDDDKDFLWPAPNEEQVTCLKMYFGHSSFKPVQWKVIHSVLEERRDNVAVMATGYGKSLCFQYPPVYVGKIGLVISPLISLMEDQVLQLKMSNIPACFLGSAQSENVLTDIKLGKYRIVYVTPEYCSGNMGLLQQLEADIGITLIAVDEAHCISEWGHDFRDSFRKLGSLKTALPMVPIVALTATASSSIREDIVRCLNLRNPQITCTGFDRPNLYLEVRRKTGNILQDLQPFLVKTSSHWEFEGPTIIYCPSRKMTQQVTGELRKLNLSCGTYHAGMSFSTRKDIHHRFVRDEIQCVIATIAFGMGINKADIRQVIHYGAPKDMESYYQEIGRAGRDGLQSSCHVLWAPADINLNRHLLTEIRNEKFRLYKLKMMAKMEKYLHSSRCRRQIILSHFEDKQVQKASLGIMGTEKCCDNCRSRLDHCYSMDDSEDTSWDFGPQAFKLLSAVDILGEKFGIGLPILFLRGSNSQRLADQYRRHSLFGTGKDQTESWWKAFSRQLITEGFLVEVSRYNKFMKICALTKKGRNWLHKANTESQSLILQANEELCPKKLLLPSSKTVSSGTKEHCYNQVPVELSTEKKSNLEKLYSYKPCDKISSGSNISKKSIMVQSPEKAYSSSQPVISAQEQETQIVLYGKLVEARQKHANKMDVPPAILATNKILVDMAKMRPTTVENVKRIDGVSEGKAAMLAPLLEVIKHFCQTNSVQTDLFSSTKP
- EXPERIMENT_NOTES: WRN ATPase assay (DNA dependent ATP hydrolysis, ADP-Glo)
- Type: biochemical
- CONDITION_CONTEXT: 3 hours pre-incubation, 300 micromolar ATP, FLAP26 DNA; geometric mean of at least 2
- Experimental: An ATPase assay was set up to measure the DNA dependent ATP hydrolysis activity of WRN helicase. This assay was used also to assess the inhibition properties of compounds of the invention on DNA dependent WRN ATPase activity. […] To evaluate the inhibition properties of compounds of the invention, serial dilutions were prepared in DMSO (10 half log dilutions from a 10 mM DMSO solution). […] Afterwards, 10 microliters of ATP detection reagent was added and incubated for an additional hour before reading. […]
READOUT_NAME: IC50 (nM)

The recorded IC50 for entry CC(=O)N1CCN(c2c(C)n(CC(=O)Nc3ccc(C(F)(F)F)cc3)c3nc(C4=CCOCC4)nn3c2=O)CC1C (stereo not shown) equals 1000

1: Cc1c(C2CCN(C(=O)c3c(F)ccc(F)c3O)CC2)c(=O)n2nc(C3=CCOCC3)nc2n1CC(=O)Nc1ccc(C(F)(F)F)cc1
2: Cc1c(N2CCN(C(=O)c3c(F)ccc(F)c3O)C(C)C2)c(=O)n2nc(C3=CCOCC3)nc2n1CC(=O)Nc1ccc(C(F)(F)F)cc1 (stereo not shown)
3: CC(=O)N1CCN(c2c(C)n(CC(=O)Nc3ccc(C(F)(F)F)cc3)c3nc(-c4ccccc4)nn3c2=O)CC1
Sort by IC50, descending. Your reply should list the labels following the order given in the request. 3, 2, 1

---

- ASSAY_SYSTEM: WRN helicase (aa N517-P1238) (Homo sapiens, UniProt Q14191)
- Construct: The core helicase motif of the WRN protein (aa N517-P1238) was produced for this assay; His (N); ZZ (N); 3C protease cleavage site (N); virus and BIICs made in SF9)
- EXPERIMENT_NOTES: WRN ATPase assay (DNA dependent ATP hydrolysis, ADP-Glo)
- CONDITION_CONTEXT: 3 hours pre-incubation, 300 micromolar ATP, FLAP26 DNA; geometric mean of at least 2
READOUT_NAME: IC50 (µM)

Please review the entries below; each comes with its answer.
According to the records, this molecule CC(=O)N1CCC(c2c(C)n(CC(=O)Nc3ccc(C(F)(F)F)cc3)c3nc(C4=CCOCC4)nn3c2=O)CC1 [Example 141] displays IC50 of 0.4

Form field IC50, entry CCc1c(N2CCN(C(C)=O)CC2)c(=O)n2nc(C3=CCC(OC)CC3)nc2n1CC(=O)Nc1ccc(C(F)(F)F)cc1 (stereo not shown) [Example 55] : 0.1

# molecule CC(=O)N1CCN(c2c(C)n(CC(=O)Nc3ccc(C(F)(F)F)cc3)c3nc(C4=CCCOC4)nn3c2=O)CC1 [Example 126] ; its IC50 = 0.8

Cc1c(C2CCN(C(=O)c3ccc(F)c(F)c3O)CC2)c(=O)n2nc(N3CCOCC3)nc2n1CC(=O)Nc1ccc(C(F)(F)F)cc1 [Example 146] has a reported IC50 of 0.09

P: CCON1CCN(c2nc3n(CC(=O)Nc4ccc(C(F)(F)F)cc4)c(C)c(N4CCN(C(C)=O)CC4)c(=O)n3n2)CC1 [Example 131]
Q: CC(=O)N1CCN(c2c(C)n(CC(=O)Nc3ccc(C(F)(F)F)c(F)c3C)c3nc(C4=CCOCC4)nn3c2=O)CC1 [Example 84]
R: CC(=O)N1CCN(c2c(C)n(CC(=O)Nc3ccc(C(F)(F)F)cc3)c3nc(N4CCC5(CCCO5)CC4)nn3c2=O)CC1 [Example 122]
Your job: order these 3 records by IC50, ascending. Return the labels ranked in the requested order, please. Q, R, P

---

- ASSAY_SYSTEM: WRN helicase (aa N517-P1238) (Homo sapiens)
- Construct: The core helicase motif of the WRN protein (aa N517-P1238) was produced for this assay; His (N); ZZ (N); 3C protease cleavage site (N); virus and BIICs made in SF9)
- EXPERIMENT_NOTES: WRN ATPase assay (DNA dependent ATP hydrolysis, ADP-Glo)
- CONDITION_CONTEXT: 3 hours pre-incubation, 300 micromolar ATP, FLAP26 DNA; geometric mean of at least 2
pIC50: −log10 of the molar value.
READOUT_NAME: pIC50

For this molecule ( `CCc1c(N2CCN(C(=O)c3c(F)ccc(F)c3O)CC2)c(=O)n2nc(C3=CCCCO3)nc2n1CC(=O)Nc1ccc(C(F)(F)F)cc1` ), measured pIC50 is 7.52

// field: pIC50; key: `CC(=O)N1CCN(c2c(C)n(CC(=O)Nc3cc(F)c(C(F)F)cc3C)c3nc(C4=CCOCC4)nn3c2=O)CC1` ; value = 6.15

// field: pIC50; key: `CC(=O)N1CCN(c2c(C)n(CC(=O)Nc3ccc(C(F)(F)F)cc3)c3nc(C4=COCCO4)nn3c2=O)CC1` ; value = 6.10

pIC50 for `CC(=O)N1CC=C(c2nc3n(CC(=O)Nc4ccc(S(F)(F)(F)(F)F)cc4)c(C)c(N4CCN(C(C)=O)CC4)c(=O)n3n2)CC1` is 7.05

The value of pIC50 measured for the molecule CCc1c(N2CCN(C(=O)C3CCOC3)CC2)c(=O)n2nc(C3=CCCCO3)nc2n1CC(=O)Nc1ccc(C(F)(F)F)cc1 (centres unmarked) [Example 61] turned out to be 6.40

P: CCc1ccc(NC(=O)Cn2c(C)c(N3CCN(C(C)=O)CC3)c(=O)n3nc(C4=CCOCC4)nc23)cc1F
Q: CCc1c(N2CCN(C(=O)c3c(O)ccc4ncccc34)CC2)c(=O)n2nc(C3=CCOCC3)nc2n1CC(=O)Nc1ccc(C(F)(F)F)cc1C
Returns: the argument ( P or Q ) having the larger pIC50. In your reply, give the label of the chosen option. Q

1: CCc1c(N2CCN(C(=O)CN)CC2)c(=O)n2nc(C3=CCC(OC)CC3)nc2n1CC(=O)Nc1ccc(C(F)(F)F)cc1 (centres unmarked)
2: CC(=O)N1CCN(c2c(C)n(CC(=O)Nc3ccc(S(F)(F)(F)(F)F)cc3)c3nc(C4=CCCCO4)nn3c2=O)CC1
3: CC(=O)N1CCN(c2c(C)n(CC(=O)Nc3ccc(C(F)(F)F)cc3)c3nc(C4=CCCC4)nn3c2=O)CC1
Descending sort on pIC50 required. Write the labels out in the order the request specifies. 2, 3, 1
(2: 7.70, 3: 6.70, 1: 6.00)

P: CC(=O)N1CCN(c2c(C)n(CC(=O)Nc3ccc(S(F)(F)(F)(F)F)cc3Cl)c3nc(C4=CCOCC4)nn3c2=O)CC1
Q: CC(=O)N1CCN(c2c(C)n(CC(=O)Nc3ccc(C(F)(F)F)cc3)c3nc(C4=CCCCO4)nn3c2=O)CC1
R: CC(=O)N1CCN(c2c(C)n(CC(=O)Nc3ccc(C(F)(F)F)cc3)c3nc(-c4ccc(CN(C)C(=O)OC(C)(C)C)cc4)nn3c2=O)CC1
S: Cc1c(N2CCN(C(=O)c3c(O)cccc3O)CC2)c(=O)n2nc(C3=CCOCC3)nc2n1CC(=O)Nc1ccc(C(F)(F)F)cc1
T: Cc1c(N2CCN(C(=O)c3c(F)ccnc3O)CC2)c(=O)n2nc(C3=CCOCC3)nc2n1CC(=O)Nc1ccc(C(F)(F)F)cc1
Number of molecules to sort: 5. Sort criterion: pIC50, ascending. Please respond by ranking the labels in the order requested. R, T, Q, P, S
(R: 6.10, T: 6.30, Q: 6.70, P: 7.00, S: 7.30)

---

- System: DLD1-WRN-KO cells
- EXPERIMENT_NOTES: Proliferation assay DLD1-WRN-KO (CellTiterGlo, off-target effects)
- Type: cell-based
- CONDITION_CONTEXT: 96 hours, geometric mean of at least 2
READOUT_NAME: GI50

# annotated cases, reported GI50 shown
Just so you know, measured GI50 for CC(=O)N1CCN(c2c(C)n(CC(=O)Nc3ccc(C(F)(F)F)cc3)c3nc(N4CC5CC5C4)nn3c2=O)CC1 (stereo not shown) [Example 125] came out at > 10 µM

Just so you know, measured GI50 for CC(=O)N1CCN(c2c(C)n(CC(=O)Nc3cc(F)c(C(F)(F)F)nc3Cl)c3nc(C4=CCOCC4)nn3c2=O)CC1 [Example 101] came out at > 10 µM

Measured GI50 of COc1cc(F)cc(C(=O)N2CCN(c3c(C)n(CC(=O)Nc4ccc(C(F)(F)F)cc4)c4nc(C5=CCOCC5)nn4c3=O)CC2)c1N [Example 153] : 5 µM

Record CCc1c(N2CCN(C(=O)c3nsnc3O)CC2)c(=O)n2nc(C3=CCOCC3)nc2n1CC(=O)Nc1ccc(C(F)(F)F)cc1Cl [Example 66] . Reported GI50: > 10 µM

Input CC(=O)N1CCN(c2c(C)n(CC(=O)Nc3ccc(C(F)(F)F)c(F)c3C)c3nc(C4=CCOCC4)nn3c2=O)CC1 [Example 84] . Output GI50: > 10 µM

---
Input Cc1c(N2CCN(C(=O)c3cnccc3O)CC2)c(=O)n2nc(C3=CCOCC3)nc2n1CC(=O)Nc1ccc(C(F)(F)F)cc1 [Example 24] . Output GI50: > 10 µM

// GI50 lookup, compound = CC(=O)N1CCN(c2c(C)n(CC(=O)Nc3ccc(C(F)(F)F)cc3)c3nc(C4=CCC5(CCO5)CC4)nn3c2=O)CC1 (stereo not shown) [Example 117] , result: > 10 µM

// sample CCc1c(N2CCN(C(C)=O)CC2)c(=O)n2nc(C3=CCC(OC)CC3)nc2n1CC(=O)Nc1ccc(C(F)(F)F)cc1 (stereo not shown) [Example 55] , its GI50 was > 10 µM

Summary for this compound, CON1CCN(c2nc3n(CC(=O)Nc4ccc(C(F)(F)F)cc4)c(C)c(N4CCN(C(C)=O)CC4)c(=O)n3n2)CC1 [Example 132] : GI50 is > 10 µM

Measured GI50 of CCc1c(N2CCN(C(=O)c3c(O)ccc4nccn34)CC2)c(=O)n2nc(C3=CCOCC3)nc2n1CC(=O)Nc1ccc(C(F)(F)F)cc1C [Example 44] : > 10 µM

Sure, the documented GI50 for CCc1c(C2=CCN(C(C)=O)CC2)c(=O)n2nc(C3=CCC(OC)CC3)nc2n1CC(=O)Nc1ccc(C(F)(F)F)cc1 (stereo not shown) [Example 140] is > 10 µM

Given item CCc1c(N2CCN(C(C)=O)CC2)c(=O)n2nc(C3=CCOCC3)nc2n1CC(=O)Nc1ccc(C(F)(F)F)cc1Cl [Example 59] , the value recorded as its GI50 is > 10 µM

compound CCc1c(N2CCN(C(=O)c3c(F)ccc(F)c3O)CC2)c(=O)n2nc(C3=CCCCO3)nc2n1CC(=O)Nc1ccc(C(F)(F)F)cc1 [Example 38] , GI50 observed: > 10 µM
